experimental.system: PI3Kδ (Homo sapiens, UniProt O00329)
Construct: purchased Ambit Biosciences; host or cells: E. coli BL21-derived host (T7 phage) or HEK-293
Sequence (O00329 whole entry): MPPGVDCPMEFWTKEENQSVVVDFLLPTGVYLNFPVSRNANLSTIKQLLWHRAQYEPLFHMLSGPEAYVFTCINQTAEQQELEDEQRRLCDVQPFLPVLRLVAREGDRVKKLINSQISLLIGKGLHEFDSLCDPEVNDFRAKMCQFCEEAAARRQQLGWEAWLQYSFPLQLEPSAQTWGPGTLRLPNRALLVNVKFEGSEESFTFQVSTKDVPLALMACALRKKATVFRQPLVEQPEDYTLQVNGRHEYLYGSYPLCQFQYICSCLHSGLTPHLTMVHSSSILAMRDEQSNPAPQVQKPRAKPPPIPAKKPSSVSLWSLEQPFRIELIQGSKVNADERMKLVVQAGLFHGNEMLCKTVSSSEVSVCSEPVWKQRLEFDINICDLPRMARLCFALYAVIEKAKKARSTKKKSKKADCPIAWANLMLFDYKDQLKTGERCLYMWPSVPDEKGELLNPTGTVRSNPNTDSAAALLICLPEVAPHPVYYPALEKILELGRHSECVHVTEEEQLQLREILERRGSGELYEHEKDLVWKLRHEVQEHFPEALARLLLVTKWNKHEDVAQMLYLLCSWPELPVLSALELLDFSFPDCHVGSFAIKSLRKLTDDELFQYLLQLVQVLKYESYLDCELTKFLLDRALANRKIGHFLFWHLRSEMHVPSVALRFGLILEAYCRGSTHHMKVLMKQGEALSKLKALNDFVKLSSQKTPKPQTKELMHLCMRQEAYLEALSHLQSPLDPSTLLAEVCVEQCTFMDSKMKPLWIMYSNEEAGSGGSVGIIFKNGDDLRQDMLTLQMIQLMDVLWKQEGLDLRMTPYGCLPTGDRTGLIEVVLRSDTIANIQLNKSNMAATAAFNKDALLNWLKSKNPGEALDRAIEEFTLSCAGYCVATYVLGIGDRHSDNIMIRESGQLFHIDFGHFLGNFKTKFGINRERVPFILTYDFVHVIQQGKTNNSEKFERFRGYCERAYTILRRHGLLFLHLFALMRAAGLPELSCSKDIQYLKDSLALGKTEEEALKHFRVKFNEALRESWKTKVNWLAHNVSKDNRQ
assay.notes: Kinase binding assay (kinase-tagged T7 phage / qPCR, Ambit Biosciences)
assay.context: read-out: IC50, inhibition against PI3Kδ
pIC50: −log10 of the molar value.
property.name: pIC50

Query string: Entry COc1cccc2c1nc(C(F)F)n2-c1nc(N2CCOCC2)nc2c1ncn2C1CCOCC1 , system PI3Kδ (Homo sapiens, UniProt O00329): what pIC50 was measured?
Result string: > 7.00

###

experimental.system: PI3Kβ (Homo sapiens, UniProt P42338)
Sequence (P42338 whole entry): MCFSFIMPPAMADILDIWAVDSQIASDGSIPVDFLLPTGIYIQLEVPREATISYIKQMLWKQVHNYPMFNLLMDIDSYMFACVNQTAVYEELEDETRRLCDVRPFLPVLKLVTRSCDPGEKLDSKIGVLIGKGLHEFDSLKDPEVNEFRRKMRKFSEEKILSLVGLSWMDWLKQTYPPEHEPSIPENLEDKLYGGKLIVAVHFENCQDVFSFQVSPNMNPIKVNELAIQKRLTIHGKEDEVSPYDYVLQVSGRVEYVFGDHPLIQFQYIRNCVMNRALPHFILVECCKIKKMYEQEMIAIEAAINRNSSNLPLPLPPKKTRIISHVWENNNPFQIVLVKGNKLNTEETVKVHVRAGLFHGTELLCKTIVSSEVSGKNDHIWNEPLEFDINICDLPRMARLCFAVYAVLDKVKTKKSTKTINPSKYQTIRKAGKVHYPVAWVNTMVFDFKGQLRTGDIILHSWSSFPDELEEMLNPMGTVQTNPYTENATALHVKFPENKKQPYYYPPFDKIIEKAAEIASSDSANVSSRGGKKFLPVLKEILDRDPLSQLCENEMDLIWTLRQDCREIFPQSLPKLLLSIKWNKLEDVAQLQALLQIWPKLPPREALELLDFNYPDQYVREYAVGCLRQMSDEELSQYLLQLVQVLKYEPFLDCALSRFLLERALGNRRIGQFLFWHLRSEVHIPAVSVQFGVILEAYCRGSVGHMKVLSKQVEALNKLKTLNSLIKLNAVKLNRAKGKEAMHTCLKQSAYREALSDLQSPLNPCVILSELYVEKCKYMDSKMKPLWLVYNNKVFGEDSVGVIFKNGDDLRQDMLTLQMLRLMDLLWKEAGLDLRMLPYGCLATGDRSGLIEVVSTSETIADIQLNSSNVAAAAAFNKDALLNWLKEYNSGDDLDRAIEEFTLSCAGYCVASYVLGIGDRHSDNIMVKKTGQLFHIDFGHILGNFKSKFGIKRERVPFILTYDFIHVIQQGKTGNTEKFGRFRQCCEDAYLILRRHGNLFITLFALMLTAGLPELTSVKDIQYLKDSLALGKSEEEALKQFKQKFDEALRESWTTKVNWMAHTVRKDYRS
pIC50: −log10 of the molar value.
property.name: pIC50

Query string: I am curious: what pIC50 value has been reported for OCCn1cnc2c(-n3c(C(F)F)nc4ccccc43)nc(N3CCOCC3)nc21 [Example 2] ?
Result string: < 7.00
